Where these numbers come from: patent US10544143B2

# tested.on: UniProt Q9NR97
# Sequence (Q9NR97 27-1041): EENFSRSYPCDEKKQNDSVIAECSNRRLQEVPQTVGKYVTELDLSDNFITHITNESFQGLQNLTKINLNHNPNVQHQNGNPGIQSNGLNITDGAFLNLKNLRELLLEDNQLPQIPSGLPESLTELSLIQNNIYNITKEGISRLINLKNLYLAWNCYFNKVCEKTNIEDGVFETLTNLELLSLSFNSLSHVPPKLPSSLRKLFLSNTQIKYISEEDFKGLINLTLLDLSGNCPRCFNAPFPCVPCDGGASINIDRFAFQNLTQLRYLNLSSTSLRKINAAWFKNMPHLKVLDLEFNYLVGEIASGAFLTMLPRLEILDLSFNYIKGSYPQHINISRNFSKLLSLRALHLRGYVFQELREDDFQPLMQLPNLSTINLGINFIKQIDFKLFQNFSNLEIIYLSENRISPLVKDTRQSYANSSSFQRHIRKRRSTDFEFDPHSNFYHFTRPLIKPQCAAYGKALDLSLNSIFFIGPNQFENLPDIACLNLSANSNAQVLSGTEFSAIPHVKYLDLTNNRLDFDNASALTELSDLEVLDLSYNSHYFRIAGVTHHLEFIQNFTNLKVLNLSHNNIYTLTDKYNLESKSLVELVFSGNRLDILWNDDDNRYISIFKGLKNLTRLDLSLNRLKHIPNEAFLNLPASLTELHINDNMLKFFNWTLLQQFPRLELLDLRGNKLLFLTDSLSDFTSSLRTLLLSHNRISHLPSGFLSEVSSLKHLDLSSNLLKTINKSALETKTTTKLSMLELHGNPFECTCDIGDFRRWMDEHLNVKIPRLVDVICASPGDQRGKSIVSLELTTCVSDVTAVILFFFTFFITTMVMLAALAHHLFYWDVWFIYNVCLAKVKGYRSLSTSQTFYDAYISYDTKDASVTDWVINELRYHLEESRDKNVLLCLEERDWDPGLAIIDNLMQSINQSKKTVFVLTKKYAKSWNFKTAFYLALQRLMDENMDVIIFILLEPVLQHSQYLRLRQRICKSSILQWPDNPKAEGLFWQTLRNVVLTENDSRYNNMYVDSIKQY
# run.description: TLR8 inhibition reporter assay (HEK-Blue SEAP);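 further: SEAP driven by IFN-β minimal promoter carrying NF-κB and AP-1 sites, compounds dosed 0.05 nM to 50 µM for 22 h, inhibition scaled between agonist-plus-DMSO and reference-inhibitor wells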
# assay.conditions: read-out: TLR8 IC50; HEK-Blue cells overexpressing human TLR8, R848 15.9 μM stimulation, SEAP reporter
pIC50: −log10 of the molar value.

| compound | pIC50 |
| --- | --- |
| CC(C)c1c(-c2cn(C)c3ncccc23)[nH]c2ccc(C3CCC(NCC(C)(C)S(C)(=O)=O)CC3)nc12 (stereo not shown) [Example 278] | 8.92 |
| COCC(C)N1CCN(c2ccc3[nH]c(-c4cc(OC)c5ncnn5c4)c(C(C)C)c3n2)CC1 (stereo not shown) | 8.92 |
| Cc1c(-c2[nH]c3ccc(N4CCNC(=O)C4)nc3c2C(C)C)cn2ncnc2c1C | 8.57 |
| Cc1c(-c2[nH]c3ccc(N4CCN(C5COC5)CC4=O)nc3c2C(C)C)cn2ncnc2c1C | 6.73 |
| Cc1ncc(CN(C)C2CCN(c3ccc4[nH]c(-c5cn6ncnc6c(C)c5C)c(C(C)C)c4n3)CC2)cn1 | 8.80 |
| CNC1CCC(c2nc3c(C(C)C)c(-c4cc(OC)c5ncnn5c4)[nH]c3cc2F)CC1 (stereo not shown) [Example 347] | 9.00 |
| COc1cc(-c2[nH]c3cc(C)c(C4CCC(N5CC(F)(F)C5)CC4)nc3c2C(C)C)cn2ncnc12 (stereo not shown) [Example 338] | 5.93 |
